tested on: HL-60; test: Induction of human HL60 cell differentiation in presence of 1 x 10^-10 M RAR agonist Am80; type: functional, cell-based
Calls of active or inactive are those of the source. The rule behind the calls is not given here.
Select the matching outcome among active, inactive

| SMILES NOTATION | QUALITATIVE LABEL |
| --- | --- |
| Cc1cc2c(cc1N(C)c1ccc(CCC(=O)O)cc1)C(C)(C)CCC2(C)C | active |

Please indicate how the test categorized Cc1cc(C(=O)O)ccc1N(C)c1ccc2c(c1)C(C)(C)CCC2(C)C .
inactive

Fill in: this test's call for Cc1cc2c(cc1N(C)c1ccc(C(=O)O)cc1)C(C)(C)CCC2(C)C is ___
active

Lab log entry: Cc1cc2c(cc1N(C)c1ccc(/C=C/C(=O)O)cc1)C(C)(C)CCC2(C)C — outcome as called in the assay?
active

Kindly provide the recorded test outcome for the following compound: CCCN(c1ccc(CCC(=O)O)cc1)c1cc2c(cc1C)C(C)(C)CCC2(C)C
active
